Exercise: for every item that follows, state its recorded MFI.
target: T1, EGFR on 293T-EGFR cells (293T cells negative for BCMA expression) (UniProt P00533 25-1210, limits assumed); test: FACS on 293T-EGFR cells (BCMA negative); note: test concentration or dose not given here
T1 construct: whole, on cells; negative control cells; that they carry EGFR is read from the label only
Please give a number only; it is taken to be in MFI.

stdin: Form field: reported MFI of NBL507-A1L1-P1R2-1D2-(9)-PME207-SEQF_A02 (VHH, purified VHH) VHH: QVQLVESGGGLVQPGGSLRLSCAASGFTFSSSAMSWARQAPGKGLECVSDIYPDGTSSYADSMKGRFTISRDNTRNTMYLQMNVLKPEDTATYYCVIGRGGYAMGDRRLRGQGTQVTVSS
stdout: 222

stdin: Form field: reported MFI of NBL507-A1L1-P1R2-1B8-(44)-PME207-SEQF_D06 (VHH, purified VHH) VHH: QVQLVESGGGLVQPEGSLRLSCAASGSIFSIYAMGWYRQAPGKQRGLVAAITSGGDTFYADSVKGRFTISRDNARNTVYLQMNNLKSEDTAVYDCNGAPWGDHAPLVASWGQGTQVTVSS
stdout: 219

stdin: Form field: reported MFI of NBL507-A1L1-P1R2-1E2-(10)-PME207-SEQF_B02 (VHH, purified VHH) VHH: EVQLVESGGGLVQPGGSLRLSCAASGSISSIYAMGWYRQAPGKLRELVAAITTGGSTFYRDSVKGRFTISRDNVANTVYLQMNSLKPEDTAVYHCNGAPWGDIAPVAVSWGQGTQVTVSS
stdout: 227

All figures here come from patent US20230002757A1.
